assay_text: Pharmacokinetics in mice (IP, IV, PO)
Type: in vivo
condition_label: mouse, in vivo; mice, IV 1 mg/kg
test_readout: AUC(0-t) (µg·h/mL)
Field: numeric (µg·h/mL). Do not append units.

// fetch AUC(0-t) given entry C=CC(=O)N[C@H]1COC[C@H]1Nc1cc(-c2cccnc2Nc2c(Cl)c(OC)cc(OC)c2Cl)ncn1 [Compound 1] 0.618

----------
assay_text: Pharmacokinetics in mice (IP, IV, PO)
Assay type: in vivo
condition_label: mouse, in vivo; mice, PO 5 mg/kg
test_readout: bioavailability (%)
Reply numerically in %, unit not repeated.

Fill in bioavailability for record `C=CC(=O)N[C@H]1COC[C@H]1Nc1cc(-c2cccnc2Nc2c(Cl)c(OC)cc(OC)c2Cl)ncn1` 20.9

----------
target_under_test: FGFR4 (Homo sapiens)
Sequence (P22455 22-802): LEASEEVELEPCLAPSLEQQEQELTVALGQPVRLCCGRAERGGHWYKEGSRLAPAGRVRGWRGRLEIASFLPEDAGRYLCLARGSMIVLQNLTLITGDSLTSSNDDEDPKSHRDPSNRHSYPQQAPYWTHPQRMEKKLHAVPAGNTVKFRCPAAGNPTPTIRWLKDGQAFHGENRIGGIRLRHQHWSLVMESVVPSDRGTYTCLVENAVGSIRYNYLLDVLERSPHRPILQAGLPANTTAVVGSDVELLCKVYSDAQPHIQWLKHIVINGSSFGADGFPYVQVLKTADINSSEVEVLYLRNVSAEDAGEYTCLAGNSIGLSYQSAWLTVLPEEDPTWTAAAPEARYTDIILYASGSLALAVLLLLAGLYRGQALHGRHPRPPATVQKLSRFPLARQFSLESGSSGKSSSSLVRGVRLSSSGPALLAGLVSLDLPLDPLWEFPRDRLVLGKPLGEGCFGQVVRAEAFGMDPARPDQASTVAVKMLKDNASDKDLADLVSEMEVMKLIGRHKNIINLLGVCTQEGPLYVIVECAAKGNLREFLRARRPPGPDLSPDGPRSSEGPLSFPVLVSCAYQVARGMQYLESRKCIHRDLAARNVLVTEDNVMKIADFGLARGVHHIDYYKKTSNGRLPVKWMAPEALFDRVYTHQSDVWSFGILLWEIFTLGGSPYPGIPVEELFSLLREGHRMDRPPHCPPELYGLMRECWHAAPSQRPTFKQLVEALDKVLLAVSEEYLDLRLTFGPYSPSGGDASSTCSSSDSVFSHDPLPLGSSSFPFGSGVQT
assay_text: FGFR4 kinase inhibition (IC50)
Assay type: biochemical
condition_label: read-out: FGFR4 inhibition (IC50 class)
Assignment: determine reported IC50 for the given compounds.

Under FGFR4 (Homo sapiens): report IC50 of `C=CC(=O)Nc1cc(OCCN2CCCC2)ccc1Nc1cc(-c2cccnc2Nc2c(Cl)c(OC)cc(OC)c2Cl)ncn1` . ≤ 10 nM

Report IC50 under test system FGFR4 (Homo sapiens) for `C=CC(=O)N[C@H]1CC[C@H]1Nc1cc(-c2cccnc2Nc2c(Cl)c(OC)cc(OC)c2Cl)ncn1` . 100 to 1000 nM

Output reported IC50 of the compound `C=CC(=O)Nc1cc(OC2COC2)ccc1Nc1cc(-c2cccnc2Nc2c(Cl)c(OC)cc(OC)c2Cl)ncn1` on FGFR4 (Homo sapiens). ≤ 10 nM

Enter measured IC50, system FGFR4 (Homo sapiens), for the compound shown: `C=CC(=O)N[C@H]1CCOC[C@H]1Nc1cc(-c2cccnc2Nc2c(Cl)c(OC)cc(OC)c2Cl)ncn1` 10 to 100 nM

Quote IC50 with test system FGFR4 (Homo sapiens) for C=CC(=O)N[C@H]1CCC[C@H]1Nc1cc(-c2cccnc2Nc2c(Cl)c(OC)cc(OC)c2Cl)ncn1 (single isomer, unassigned) 100 to 1000 nM

State recorded IC50 with FGFR4 (Homo sapiens), entry `C=CC(=O)Nc1cc(OC2CCN(C)CC2)ccc1Nc1cc(-c2cccnc2Nc2c(Cl)c(OC)cc(OC)c2Cl)ncn1` , no comment. ≤ 10 nM

Quote IC50 with test system FGFR4 (Homo sapiens) for `C=CC(=O)Nc1cc(OC2CN(C)C2)ccc1Nc1cc(-c2cccnc2Nc2c(Cl)c(OC)cc(OC)c2Cl)ncn1` ≤ 10 nM

Look up and report measured IC50 (FGFR4 (Homo sapiens)) for the following compound: `C=CC(=O)Nc1cc(OCCN(CC)CC)ccc1Nc1cc(-c2cccnc2Nc2c(Cl)c(OC)cc(OC)c2Cl)ncn1` ≤ 10 nM

Identify measured IC50 obtained with FGFR4 (Homo sapiens) for C=CC(=O)NC1CC1Nc1cc(-c2cccnc2Nc2c(Cl)c(OC)cc(OC)c2Cl)ncn1 (stereo not drawn) . ≤ 10 nM

Provide the reported IC50 (system: FGFR4 (Homo sapiens)) for `C=CC(=O)Nc1ncn(C)c1Nc1cc(-c2cccnc2Nc2c(Cl)c(OC)cc(OC)c2Cl)ncn1` ≥ 1000 nM

Check FGFR4 (Homo sapiens) data and give IC50 for `C=CC(=O)N[C@H]1COC[C@H]1Nc1cc(-c2cccnc2Nc2c(Cl)c(OC)cc(OC)c2Cl)ncn1` . 10 to 100 nM

Give IC50 for this entry on FGFR4 (Homo sapiens): `C=CC(=O)Nc1cc(OCCN(C)C)ccc1Nc1cc(-c2cccnc2Nc2c(Cl)c(OC)cc(OC)c2Cl)ncn1` ≤ 10 nM

Return reported IC50 for target or system FGFR4 (Homo sapiens), item `C=CC(=O)Nc1cc(OCC2CN(C)C2)ccc1Nc1cc(-c2cccnc2Nc2c(Cl)c(OC)cc(OC)c2Cl)ncn1` . ≤ 10 nM

Give the observed IC50 of C=CC(=O)Nc1cc(OC2CCOC2)ccc1Nc1cc(-c2cccnc2Nc2c(Cl)c(OC)cc(OC)c2Cl)ncn1 (stereo not drawn) for FGFR4 (Homo sapiens). ≤ 10 nM

Quote FGFR4 (Homo sapiens) IC50 for entry C=CC(=O)Nc1cc(OC2CCN(C)C2)ccc1Nc1cc(-c2cccnc2Nc2c(Cl)c(OC)cc(OC)c2Cl)ncn1 (stereo not drawn) . ≤ 10 nM
